// data source = patent US20110091971A1

system: H1 or H9 human embryonic stem cells; test: Activin A bioassay: differentiation of human embryonic stem cells to definitive endoderm, cell number and SOX17 intensity by high content analysis (96-well, four days); format: cell-based; details: supernatant concentration 10x, assay dilution 1:20; control = R&D Sys Activin A 100 ng/ml on same plate
parameter: Sox 17 Intensity % of control

ACTN83: activin A variant peptide, SEQ ID 84 (protein) GLECDGKVNICCKKQSFGRAKDIGWNDWIIAPSGYHGGGCTGECPSHIAGTSGSSLSFHSTVINHYRMRGHSPFANLKSCCSPTKLRPMSMLYYDDGQNIIKKDIQGMKVEECGCT    2.4%
ACTN6: activin A variant peptide, SEQ ID 7 (protein, Sytnthetic Construct) GLECDGKVNLCCKKQWFVSFKDIGWNDWIIAPSGYHANRCSGKCPSHIAGTSGSSLSFHSTVINHYRMRGHSPFADMGACCIPTKLRPMSMLYYDDGQNIIKKDIQNMIVEECGCS    12.4%
ACTN32: activin A variant peptide, SEQ ID 33 (protein) GLECDGKVNLCCKKQDFVSFKDIGWNDWIIAPSGYHANRCGGKCPSHIAGTSGSSLSFHSTVINHYRMRGHSPFSNMGSCCIPTKLRPMSMLYYDDGQNIIKKDIQNMIVEECGCS    0.1%
